These measurements were taken from PubChem BioAssay (NCI).

# System: UACC-62 melanoma
# Test method notes: NCI-60 one-dose screen, 48 h (100 = growth as untreated, 0 = no growth, -100 = all killed)
# Experimental setup: 10 µM
About 83,000 compounds went through this panel and 20% of them were active in at least one assay; those are over-represented in the sample as a whole.
Reported values of growth for individual entries
Field format: number, assumed %, no unit text.

CC(=O)[C@H]1CC[C@H]2[C@@H]3CCC4=CC(=O)C=C[C@]4(C)[C@H]3CC[C@]12C ... 80.3
CN(C)CCNC(=O)c1cccn2c(=O)c3cc4ccccc4cc3nc12 ... -56
ClCC#CCSc1ncnc2c1ncn2CC#CCCl ... 19.2
O=C(c1ccc(Cl)cc1Cl)N1CCOCC1 ... 101
CC(=O)CSC(C)=O ... 107

// lookup growth for c1ccc(CNc2ncnc3scc(-c4cccs4)c23)nc1 56

Param item: CC1(C)CCC(=NNC(N)=S)CC1 103
